# measuredOn: low Km AlDH from rat liver (Rattus norvegicus, UniProt P11884)
# Construct: using a preparation from rat liver containing both Low Km and high Km AlDH; from tissue; host or cells: rat liver preparation
# Sequence (P11884 20-519): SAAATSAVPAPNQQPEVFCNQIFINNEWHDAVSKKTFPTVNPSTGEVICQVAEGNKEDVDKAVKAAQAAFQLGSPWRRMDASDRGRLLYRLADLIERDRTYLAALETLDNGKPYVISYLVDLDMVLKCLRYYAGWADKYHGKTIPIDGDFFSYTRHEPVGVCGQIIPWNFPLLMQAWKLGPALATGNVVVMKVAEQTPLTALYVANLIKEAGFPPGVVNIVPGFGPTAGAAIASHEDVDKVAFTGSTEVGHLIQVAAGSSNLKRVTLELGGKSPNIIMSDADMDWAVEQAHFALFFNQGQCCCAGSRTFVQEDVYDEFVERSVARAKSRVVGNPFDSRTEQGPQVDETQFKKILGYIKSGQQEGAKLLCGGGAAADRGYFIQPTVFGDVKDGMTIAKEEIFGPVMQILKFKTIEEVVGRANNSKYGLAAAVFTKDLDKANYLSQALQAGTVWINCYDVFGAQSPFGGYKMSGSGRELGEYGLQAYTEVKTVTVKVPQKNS
# method: Inhibition of mammalian mitochondrial (low Km) AlDH in rat liver preparation
# Format: biochemical
# cond: Example 4, rat liver low Km AlDH, 5 μM acetaldehyde, 100 μM concentration
# inhibition of activity of the low Km enzyme listing for each entry below
Please give a number only; it is taken to be in %.

Worked cases, answers included:
INSERT INTO measurements (molecule, unitssymbol, measured) VALUES
  ('O=C(O)c1cc(=O)c2ccccc2[nH]1', '%', 43),
  ('Nc1c(O)cccc1C(=O)CC(N)C(=O)O (centres unmarked) [3-hydroxykynurenine]', '%', 69),
  ('O=C(O)C(=O)Cc1c[nH]c2ccccc12', '%', 53);

Would you kindly look at the next entry?
Could you tell me which inhibition of activity of the low Km enzyme is on file for Nc1c(O)cccc1C(=O)O [3-hydroxyanthranilic acid] ?
76
